Where these numbers come from: patent US20090047246A1

Target System: HCV NS3 helicase (Hepatitis C virus genotype 1b, UniProt P26663)
Construct: full-length NS3 (1-631), purified at Array BioPharma
Sequence (P26663 1027-1657): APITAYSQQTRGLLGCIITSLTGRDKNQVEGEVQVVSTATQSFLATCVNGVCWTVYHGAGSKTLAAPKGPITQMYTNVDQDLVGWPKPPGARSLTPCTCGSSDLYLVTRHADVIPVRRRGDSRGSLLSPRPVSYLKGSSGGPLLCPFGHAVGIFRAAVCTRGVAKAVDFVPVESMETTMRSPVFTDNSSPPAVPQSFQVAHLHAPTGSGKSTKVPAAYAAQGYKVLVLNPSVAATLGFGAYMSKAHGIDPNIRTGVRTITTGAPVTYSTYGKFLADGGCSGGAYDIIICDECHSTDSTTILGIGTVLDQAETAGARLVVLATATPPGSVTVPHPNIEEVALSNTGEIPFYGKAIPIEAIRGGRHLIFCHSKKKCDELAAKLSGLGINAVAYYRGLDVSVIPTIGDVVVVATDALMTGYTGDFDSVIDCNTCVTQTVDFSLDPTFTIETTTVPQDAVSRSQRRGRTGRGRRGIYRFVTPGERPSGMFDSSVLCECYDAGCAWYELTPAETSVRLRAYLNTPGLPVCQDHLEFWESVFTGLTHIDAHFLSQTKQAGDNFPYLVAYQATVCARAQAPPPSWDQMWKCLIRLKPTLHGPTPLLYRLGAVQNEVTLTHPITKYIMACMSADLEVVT
Assay Notes: HCV Helicase Prompt FRET Assay (Example A)
Assay type: biochemical
Experimental Context: HCV NS3 helicase; tables do not say whether Example A or Example B assay; read-out: IC50 Activity
Protocol: Test compounds were diluted to 2.5 mM by adding 6 uL of a 10 mM solution of the compound to 18 uL of DMSO in a 384-well Costar polypropylene plate. Serial dilutions (2.5×) were performed in the plate using DMSO as the diluent. 1 ul of solution was transferred from each well to a new 384-well Costar polypropylene plate. […] The ATP solution was prepared in MilliQ water, pH adjusted to approximately 7 with NaOH. […] The concentration was determined via A260 (ext. coeff=15,400 M^−1cm^−1). […]
Parameter Measured: IC50

[
  {
    "Compound": "O=C(O)Cc1cn(Cc2csc3ccc(Cl)cc23)c2cc(-c3ccccc3)ccc12",
    "Assay Value": "< 10 µM"
  },
  {
    "Compound": "CN(Cc1ccccc1)c1ccc(-n2cc(C(O)(C(=O)O)C(F)(F)F)c3ccccc32)cc1 (stereo not drawn)",
    "Assay Value": "< 10 µM"
  },
  {
    "Compound": "COC(=O)C(Cc1ccccc1)c1cn(Cc2ccc(C(C)C)cc2)c2ccc(Br)cc12 (stereo not drawn)",
    "Assay Value": "> 50 µM"
  },
  {
    "Compound": "CSc1cccc(-c2cccc(C(=O)c3[nH]c4ccccc4c3CC(=O)O)c2)c1",
    "Assay Value": "10 to 50 µM"
  },
  {
    "Compound": "O=C(O)Cc1cn(-c2ccc(N(Cc3ccccc3)Cc3ccccc3)cc2)c2ccccc12",
    "Assay Value": "< 10 µM"
  },
  {
    "Compound": "O=C(O)Cc1cn(Cc2ccc(Oc3cc(Cl)ccc3Cl)cc2)c2ccccc12",
    "Assay Value": "< 10 µM"
  }
]

---

Target System: HCV NS3 helicase (Hepatitis C virus genotype 1b, UniProt P26663)
Construct: full-length NS3 (1-631), purified at Array BioPharma
Assay Notes: HCV Helicase Prompt FRET Assay (Example A)
Type: biochemical
Experimental Context: HCV NS3 helicase; tables do not say whether Example A or Example B assay; read-out: IC50 Activity
pIC50: −log10 of the molar value.
The reader will find reported pIC50 values listed item by item below.

[
  {
    "Substance Smiles": "CCOc1cccc(-c2cccc(C(=O)c3[nH]c4ccccc4c3CC(=O)O)c2)c1",
    "pIC50": "4.30 to 5.00"
  },
  {
    "Substance Smiles": "O=C(O)Cc1c(C(=O)c2ccc(-c3ccccc3C(F)(F)F)cc2)[nH]c2ccccc12",
    "pIC50": "4.30 to 5.00"
  },
  {
    "Substance Smiles": "O=C(O)Cc1c(C(=O)Cc2ccccc2Br)n(Cc2ccccc2)c2ccccc12",
    "pIC50": "> 5.00"
  },
  {
    "Substance Smiles": "CCS(=O)(=O)NC(=O)Cc1cn(Cc2cccc(OCc3ccccc3)c2)c2ccc(OCc3ccccc3)cc12",
    "pIC50": "> 5.00"
  },
  {
    "Substance Smiles": "Cc1cc([N+](=O)[O-])ccc1-n1cc(/C=C/C(=O)O)c2cc(/C=C/C(=O)O)cnc21",
    "pIC50": "< 4.30"
  },
  {
    "Substance Smiles": "Cc1cc([N+](=O)[O-])ccc1-n1c(Cc2csc3ccc(Cl)cc23)c(CC(=O)O)c2ccc(OCc3ccccc3)cc21",
    "pIC50": "> 5.00"
  },
  {
    "Substance Smiles": "O=C(O)Cc1c(C(=O)c2ccc(-c3ccccc3)cc2)[nH]c2ccc(Br)cc12",
    "pIC50": "4.30 to 5.00"
  },
  {
    "Substance Smiles": "CC(C)c1cccc(-c2cccc(Cc3[nH]c4ccccc4c3CC(=O)O)c2)c1",
    "pIC50": "> 5.00"
  },
  {
    "Substance Smiles": "COC(=O)/C=C/c1cn(-c2ccc([N+](=O)[O-])cc2C)c2ncc(OCc3ccccc3)cc12",
    "pIC50": "< 4.30"
  },
  {
    "Substance Smiles": "COc1ccc2c(CC(=O)O)cn(Cc3csc4ccc(Cl)cc34)c2c1",
    "pIC50": "4.30 to 5.00"
  }
]

---

The reader will find reported pIC50 values listed item by item below.
Target System: HCV NS3 helicase (Hepatitis C virus genotype 1b, UniProt P26663)
Construct: full-length NS3 (1-631), purified at Array BioPharma
Assay Notes: HCV Helicase Prompt FRET Assay (Example A)
Format: biochemical
Experimental Context: HCV NS3 helicase; tables do not say whether Example A or Example B assay; read-out: IC50 Activity
pIC50: −log10 of the molar value.

[
  {
    "Molecule": "O=C(O)Cc1cn(-c2ccc(-c3cccc(Cl)c3)cc2)c2ccccc12",
    "pIC50": "> 5.00"
  },
  {
    "Molecule": "CC(=O)NC(C(=O)O)c1cn(Cc2ccc(C(C)C)cc2)c2ccccc12 (stereo not drawn)",
    "pIC50": "4.30 to 5.00"
  },
  {
    "Molecule": "O=C(O)Cc1cn(Cc2cccc(-c3cn[nH]c3)c2)c2ccc(OCc3ccccc3)cc12",
    "pIC50": "> 5.00"
  },
  {
    "Molecule": "O=C(O)Cc1cn(Cc2cccc(-c3c[nH]nn3)c2)c2ccc(OCc3ccccc3)cc12",
    "pIC50": "4.30 to 5.00"
  },
  {
    "Molecule": "CSc1ccc2c(c1)c(CC(N)=O)cn2Cc1cccc(OCc2ccccc2)c1",
    "pIC50": "> 5.00"
  },
  {
    "Molecule": "CC(C)(c1nnn[nH]1)c1cn(Cc2csc3ccc(Cl)cc23)c2ccccc12",
    "pIC50": "4.30 to 5.00"
  }
]

---

Target System: HCV NS3 helicase (Hepatitis C virus genotype 1b, UniProt P26663)
Construct: full-length NS3 (1-631), purified at Array BioPharma
Assay Notes: HCV Helicase Prompt FRET Assay (Example A)
Format: biochemical
Experimental Context: HCV NS3 helicase; tables do not say whether Example A or Example B assay; read-out: IC50 Activity
Parameter Measured: IC50

[
  {
    "Compound": "O=C(O)Cc1c(C(=O)c2ccccc2)n(Cc2csc3ccc(Cl)cc23)c2ccccc12 [Example 217]",
    "Parameter Measured": "IC50",
    "Assay Value": "< 10 µM"
  },
  {
    "Compound": "Cc1cc(-c2cccc(Cn3cc(CC(=O)O)c4cc(OCc5ccccc5)ccc43)c2)ccc1F [Example 118]",
    "Parameter Measured": "IC50",
    "Assay Value": "< 10 µM"
  },
  {
    "Compound": "CN(c1cccc(Cn2cc(CC(=O)O)c3ccccc32)c1)c1ccccc1F [Example 520]",
    "Parameter Measured": "IC50",
    "Assay Value": "< 10 µM"
  },
  {
    "Compound": "COc1cccc(N(C)c2cccc(Cn3cc(CC(=O)O)c4ccccc43)c2)c1 [Example 527]",
    "Parameter Measured": "IC50",
    "Assay Value": "< 10 µM"
  },
  {
    "Compound": "CCOC(=O)Cc1cn(Cc2cccc(N(C)c3cc(Cl)ccc3Cl)c2)c2ccccc12 [Example 548]",
    "Parameter Measured": "IC50",
    "Assay Value": "< 10 µM"
  },
  {
    "Compound": "O=C(Cn1cc(Cc2nnn[nH]2)c2ccccc21)c1ccccc1 [Example 214]",
    "Parameter Measured": "IC50",
    "Assay Value": "10 to 50 µM"
  },
  {
    "Compound": "CCOC(=O)Cc1cn(Cc2ccc(Oc3cc(C(F)(F)F)cc(C(F)(F)F)c3)cc2)c2ccccc12 [Example 517]",
    "Parameter Measured": "IC50",
    "Assay Value": "10 to 50 µM"
  },
  {
    "Compound": "CC(C)N(Cc1ccccc1)c1ccc(-n2cc(CC(=O)O)c3ccccc32)cc1 [Example 167]",
    "Parameter Measured": "IC50",
    "Assay Value": "< 10 µM"
  },
  {
    "Compound": "Cc1cc([N+](=O)[O-])ccc1-n1cc(CC(=O)O)c2ccc(OCc3ccccc3)cc21 [Example 343]",
    "Parameter Measured": "IC50",
    "Assay Value": "10 to 50 µM"
  },
  {
    "Compound": "COC(OC)c1cc([N+](=O)[O-])ccc1-n1cc(CC(=O)O)c2cc(Br)ccc21 [Example 338]",
    "Parameter Measured": "IC50",
    "Assay Value": "> 50 µM"
  },
  {
    "Compound": "CN(Cc1cccnc1)c1ccc(-n2cc(CC(=O)O)c3ccccc32)cc1 [Example 180]",
    "Parameter Measured": "IC50",
    "Assay Value": "10 to 50 µM"
  },
  {
    "Compound": "O=C(O)Cc1cn(Cc2cccc(-c3cccc(Cl)c3)c2)c2ccc(OCc3ccccc3)cc12 [Example 129]",
    "Parameter Measured": "IC50",
    "Assay Value": "< 10 µM"
  },
  {
    "Compound": "O=C(O)Cc1c(C(=O)c2cccc(-c3cccc(Cl)c3Cl)c2)oc2ccccc12 [Example 241]",
    "Parameter Measured": "IC50",
    "Assay Value": "< 10 µM"
  },
  {
    "Compound": "O=C(O)Cc1c(C(=O)Cc2ccc(F)cc2)n(Cc2ccccc2)c2ccccc12 [Example 259]",
    "Parameter Measured": "IC50",
    "Assay Value": "10 to 50 µM"
  },
  {
    "Compound": "COc1ccccc1Oc1cccc(Cn2cc(CC(=O)O)c3ccccc32)c1 [Example 478]",
    "Parameter Measured": "IC50",
    "Assay Value": "10 to 50 µM"
  },
  {
    "Compound": "CC(C)c1ccc(Cn2c(C(=O)NCc3ccc(-c4ccccc4)cc3)c(CC(=O)O)c3cc(Br)ccc32)cc1 [Example 441]",
    "Parameter Measured": "IC50",
    "Assay Value": "10 to 50 µM"
  },
  {
    "Compound": "O=C(O)Cc1c(C(=O)C(Cc2ccccc2)c2ccc(-c3ccccc3)cc2)[nH]c2ccccc12 (stereo not shown) [Example 251]",
    "Parameter Measured": "IC50",
    "Assay Value": "< 10 µM"
  },
  {
    "Compound": "O=C(O)Cc1cn(-c2ccc3sccc3c2)c2ccccc12 [Example 147]",
    "Parameter Measured": "IC50",
    "Assay Value": "10 to 50 µM"
  },
  {
    "Compound": "CC(C)c1cccc(-c2cccc(Cc3oc4ccccc4c3CC(=O)O)c2)c1 [Example 311]",
    "Parameter Measured": "IC50",
    "Assay Value": "< 10 µM"
  }
]
